method notes: 28-day safety and toxicokinetic study in cats (Example 14)
Format: in vivo, cat
condition: both sexes, domestic shorthair, cat, serum, oral, 15 mg/kg, capsule 3, 9, or 15 mg/kg once daily, Day 27, read-out: Mean half-lives
measured attribute: half-life

Query: Recorded half-life of CCc1nc2c(C)nc(C)cc2n1-c1ccc(CCNC(=O)NS(=O)(=O)c2ccc(C)cc2)cc1 , please.
Reply: 3 to 14 h

###

method notes: Dose linearity and effect of feeding, PK in cats (Example 10)
Type: in vivo, cat
condition: male, serum, po, 10 mg/kg, cats, Group 4, 10 mg/kg capsule, Fasted, Male, mean; read-out: Cmax
measured attribute: Cmax (ng/mL)
Report the figure in ng/mL without appending any unit label.

Query: Recorded Cmax of CCc1nc2c(C)nc(C)cc2n1-c1ccc(CCNC(=O)NS(=O)(=O)c2ccc(C)cc2)cc1 , please.
Reply: 4280

###

method notes: Crossover PK of tablet vs methylcellulose suspension in beagle dogs (Example 15)
Type: in vivo, beagle dog
condition: both sexes, beagle, dog, serum, po, 60 mg, beagle dogs, both sexes combined, Day 15, 60-mg tablet; read-out: average AUClast
measured attribute: AUC(0-t) (ng·h/mL)
Report the figure in ng·h/mL without appending any unit label.

Query: Recorded AUC(0-t) of CCc1nc2c(C)nc(C)cc2n1-c1ccc(CCNC(=O)NS(=O)(=O)c2ccc(C)cc2)cc1 , please.
Reply: 17400

###

method notes: Dose linearity and effect of feeding, PK in cats (Example 10)
Assay type: in vivo, cat
condition: male, serum, po, 2 mg/kg, cats, Group 1, 2 mg/kg capsule, Fed, Male, mean; read-out: t1/2 (converted)
measured attribute: half-life (h)
Report the figure in h without appending any unit label.

Query: Recorded half-life of CCc1nc2c(C)nc(C)cc2n1-c1ccc(CCNC(=O)NS(=O)(=O)c2ccc(C)cc2)cc1 , please.
Reply: 3.12

###

method notes: Dose linearity and effect of feeding, PK in cats (Example 10)
Type: in vivo, cat
condition: both sexes, serum, po, 2 mg/kg, Group 2 fasted cats, single oral 2 mg/kg capsule, males and females; read-out: mean AUC0-∞
measured attribute: AUC(0-inf)

Query: Recorded AUC(0-inf) of CCc1nc2c(C)nc(C)cc2n1-c1ccc(CCNC(=O)NS(=O)(=O)c2ccc(C)cc2)cc1 [grapiprant] , please.
Reply: 1970 to 2850 ng·h/mL

###

method notes: Dose linearity and effect of feeding, PK in cats (Example 10)
Type: in vivo, cat
condition: both sexes, serum, po, 2 mg/kg, Group 1 fed cats, single oral 2 mg/kg capsule, males and females; read-out: Mean Cmax
measured attribute: Cmax

Query: Recorded Cmax of CCc1nc2c(C)nc(C)cc2n1-c1ccc(CCNC(=O)NS(=O)(=O)c2ccc(C)cc2)cc1 [grapiprant] , please.
Reply: 327 to 407 ng/mL

###

method notes: Pharmacokinetics in cats FPK-13-004 (Example 13)
Assay type: in vivo, cat
condition: both sexes, serum, 5 mg/animal; cats, single dose 5 mg (1 mg/kg), mean of all animals; read-out: Tmax
measured attribute: Tmax (h)
Report the figure in h without appending any unit label.

Query: Recorded Tmax of CCc1nc2c(C)nc(C)cc2n1-c1ccc(CCNC(=O)NS(=O)(=O)c2ccc(C)cc2)cc1 , please.
Reply: 1.13

###

method notes: Dose linearity and effect of feeding, PK in cats (Example 10)
Type: in vivo, cat
condition: female, serum, po, 2 mg/kg, cats, Group 2, 2 mg/kg capsule, Fasted, Female, mean; read-out: AUC0-∞
measured attribute: AUC(0-inf) (µg·h/mL)
Report the figure in µg·h/mL without appending any unit label.

Query: Recorded AUC(0-inf) of CCc1nc2c(C)nc(C)cc2n1-c1ccc(CCNC(=O)NS(=O)(=O)c2ccc(C)cc2)cc1 , please.
Reply: 2.85
